These entries and their values trace back to ChEMBL document CHEMBL4665913.

- experimental_details: Initial plasma concentration in dog at 1 mg/kg, iv by LC-MS/MS analysis
- Type: ADME, organism-based, Canis lupus familiaris

[
  {
    "molecular_string": "Cc1cc(-c2nc(C(=O)Nc3cc4oc(N5CCOCC5)nc4nc3N3CC[C@@H](O)C3)co2)ccn1",
    "uom": "ng/mL",
    "C0": 1960
  }
]

* * *

- experimental_details: Oral bioavailability in Wistar rat at 10 mg/kg measured up to 24 hrs by LC-MS/MS analysis
- Type: ADME, organism-based
- cond: in vivo

[
  {
    "molecule": "Cc1cc(-c2nc(C(=O)Nc3cc4oc(N5CCOCC5)nc4nc3N3CC[C@@H](O)C3)co2)ccn1 [EMAVUSERTIB]",
    "bioavailability, %": 46
  }
]

* * *

- experimental_details: Clearance in CD1 mouse at 3 mg/kg, iv measured up to 24 hrs by LC-MS/MS analysis
- Assay type: ADME, organism-based
- cond: in vivo
This section presents compounds with their documented clearance values.

[
  {
    "molecular_string": "Cc1cc(-c2nc(C(=O)Nc3cc4oc(N5CCOCC5)nc4nc3N3CC[C@H](O)C3)co2)ccn1",
    "clearance, mL/min/kg": 52.2
  },
  {
    "molecular_string": "Cc1cc(-c2nc(C(=O)Nc3cc4oc(N5CCOCC5)nc4nc3N3CC[C@@H](O)C3)co2)ccn1",
    "clearance, mL/min/kg": 9.27
  }
]

* * *

- experimental_details: Drug concentration in human OCI-LY3 cells xenografted SCID Beige mouse tumor at 200 mg/kg, po administered via gavage for 14 days and measured at 2 hrs post last dose by LC-MS/MS analysis
- Format: ADME, organism-based, Neoplasm
- cond: time 14 day, read-out: Ct

[
  {
    "molecular_string": "Cc1cc(-c2nc(C(=O)Nc3cc4oc(N5CCOCC5)nc4nc3N3CC[C@@H](O)C3)co2)ccn1",
    "concentration at 336 h": "37000 ng/g"
  }
]

* * *

- experimental_details: Volume of distribution in dog at 1 mg/kg, iv measured up to 24 hrs by LC-MS/MS analysis
- Format: ADME, organism-based, Canis lupus familiaris
- cond: in vivo

[
  {
    "molecule": "Cc1cc(-c2nc(C(=O)Nc3cc4oc(N5CCOCC5)nc4nc3N3CC[C@@H](O)C3)co2)ccn1 [EMAVUSERTIB]",
    "Vd / L/kg": 0.5
  }
]

* * *

- experimental_details: Cmax in CD1 mouse at 10 mg/kg, po measured up to 24 hrs by LC-MS/MS analysis
- Type: ADME, organism-based
- Design: route oral, dose 10 mg/kg, time <=24
- cond: in vivo

[
  {
    "molecular_string": "Cc1cc(-c2nc(C(=O)Nc3cc4oc(N5CCOCC5)nc4nc3N3CC[C@@H](O)C3)co2)ccn1",
    "Cmax": "6.62 µg/mL"
  },
  {
    "molecular_string": "Cc1cc(-c2nc(C(=O)Nc3cc4oc(N5CCOCC5)nc4nc3N3CC[C@H](O)C3)co2)ccn1",
    "Cmax": "2.53 µg/mL"
  }
]

* * *

- experimental_details: Metabolic stability in human liver microsomes assessed as parent compound remaining at 1 uM measured upto 60 mins in presence of NADPH by LC-MS/MS analysis
- Format: ADME, Microsome
- cond: read-out: Stabilty
Please use YES for remaining at 1 h, 1 µM under 90% and NO for everything else, ties included.

[
  {
    "compound": "Cc1cc(-c2nc(C(=O)Nc3cc4oc(N5CCOCC5)nc4nc3N3CC[C@@H](N)C3)co2)ccn1",
    "assigned_label": "NO"
  },
  {
    "compound": "Cc1cc(-c2nc(C(=O)Nc3cc4oc(N5CCOCC5)nc4nc3N3CC[C@@H](O)C3)co2)ccn1",
    "assigned_label": "NO"
  },
  {
    "compound": "Cc1cc(-c2nc(C(=O)Nc3cc4oc(N5CCOCC5)nc4nc3N3CC[C@@H](F)C3)co2)ccn1",
    "assigned_label": "NO"
  },
  {
    "compound": "CCC1(O)CCCN(c2nc3nc(N4CCOCC4)oc3cc2NC(=O)c2coc(-c3ccnc(C)c3)n2)C1 (stereo not given)",
    "assigned_label": "NO"
  },
  {
    "compound": "Cc1cc(-c2nc(C(=O)Nc3cc4oc(N5CCOCC5)nc4nc3N3CCC(F)CC3)co2)ccn1",
    "assigned_label": "YES"
  },
  {
    "compound": "Cc1cc(-c2nc(C(=O)Nc3cc4oc(N5CCOCC5)nc4nc3N3CCC(O)CC3)co2)ccn1",
    "assigned_label": "NO"
  },
  {
    "compound": "Cc1cc(-c2nc(C(=O)Nc3cc4oc(N5CCOCC5)nc4nc3C3CC3)co2)ccn1",
    "assigned_label": "YES"
  },
  {
    "compound": "Cc1cc(-c2nc(C(=O)Nc3cc4oc(N5CCOCC5)nc4nc3N3CCCC(F)C3)co2)ccn1 (stereo not given)",
    "assigned_label": "YES"
  },
  {
    "compound": "Cc1cc(-c2nc(C(=O)Nc3cc4oc(N5CCOCC5)nc4nc3N3CC[C@H](O)C3)co2)ccn1",
    "assigned_label": "NO"
  }
]

* * *

- experimental_details: AUC (0 to t) in dog at 1 mg/kg, iv measured up to 24 hrs by LC-MS/MS analysis
- Assay type: ADME, organism-based, Canis lupus familiaris
- Parameters: route intravenous, dose 1 mg/kg, time <=24
- cond: in vivo

[
  {
    "molecular_string": "Cc1cc(-c2nc(C(=O)Nc3cc4oc(N5CCOCC5)nc4nc3N3CC[C@@H](O)C3)co2)ccn1",
    "AUC(0-t) at 24 h [ng·h/mL]": 6060
  }
]

* * *

- experimental_details: Tmax in Wistar rat at 10 mg/kg, po measured up to 24 hrs by LC-MS/MS analysis
- Assay type: ADME, organism-based
- cond: in vivo
assay_readout: Tmax (h)

[
  {
    "molecular_string": "Cc1cc(-c2nc(C(=O)Nc3cc4oc(N5CCOCC5)nc4nc3N3CC[C@@H](O)C3)co2)ccn1",
    "recorded_value": 1.2
  }
]

* * *

- experimental_details: Metabolic stability in rat liver microsomes assessed as parent compound remaining at 1 uM measured upto 60 mins in presence of NADPH by LC-MS/MS analysis
- Format: ADME, Microsome
- cond: read-out: Stabilty

[
  {
    "molecule": "Cc1cc(-c2nc(C(=O)Nc3cc4oc(N5CCOCC5)nc4nc3N3CCCC(F)C3)co2)ccn1 (stereo not given)",
    "remaining at 1 h, 1 µM": "91%"
  },
  {
    "molecule": "O=C(Nc1cc2oc(N3CCOCC3)nc2nc1C1CC1)c1coc(N2CC[C@H](O)C2)n1",
    "remaining at 1 h, 1 µM": "> 95%"
  },
  {
    "molecule": "CCC1(O)CCCN(c2nc3nc(N4CCOCC4)oc3cc2NC(=O)c2coc(-c3ccnc(C)c3)n2)C1 (stereo not given)",
    "remaining at 1 h, 1 µM": "> 95%"
  },
  {
    "molecule": "Cc1cc(-c2nc(C(=O)Nc3cc4oc(N5CCOCC5)nc4nc3N3CC[C@@H](N)C3)co2)ccn1",
    "remaining at 1 h, 1 µM": "> 95%"
  },
  {
    "molecule": "Cc1cc(-c2nc(C(=O)Nc3cc4oc(N5CCOCC5)nc4nc3N3CCC(O)CC3)co2)ccn1",
    "remaining at 1 h, 1 µM": "> 95%"
  }
]

* * *

Reported Vd values for the following compounds.
- experimental_details: Volume of distribution in CD1 mouse at 3 mg/kg, iv measured up to 24 hrs by LC-MS/MS analysis
- Format: ADME, organism-based
- cond: in vivo
assay_readout: Vd (L/kg)

[
  {
    "molecular_string": "Cc1cc(-c2nc(C(=O)Nc3cc4oc(N5CCOCC5)nc4nc3N3CC[C@H](O)C3)co2)ccn1",
    "recorded_value": 5.57
  },
  {
    "molecular_string": "Cc1cc(-c2nc(C(=O)Nc3cc4oc(N5CCOCC5)nc4nc3N3CC[C@@H](O)C3)co2)ccn1",
    "recorded_value": 0.661
  }
]

* * *

- experimental_details: Cmax in Wistar rat at 10 mg/kg, po measured up to 24 hrs by LC-MS/MS analysis
- Assay type: ADME, organism-based
- Set-up: route oral, dose 10 mg/kg, time <=24
- cond: in vivo

[
  {
    "compound": "Cc1cc(-c2nc(C(=O)Nc3cc4oc(N5CCOCC5)nc4nc3N3CC[C@@H](O)C3)co2)ccn1 [EMAVUSERTIB]",
    "Cmax (ng/mL)": 22100
  }
]
